Molecular target: T1, human MSLN-R3 protein (human, UniProt Q13421 487-598)
T1 construct: also called hMSLN-R3
T1 sequence (Q13421 495-606, form in doubt): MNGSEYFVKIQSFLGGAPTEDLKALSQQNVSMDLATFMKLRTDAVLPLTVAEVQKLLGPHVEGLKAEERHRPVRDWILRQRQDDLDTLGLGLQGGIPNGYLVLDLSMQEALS
Experiment: ELISA on coated antigen, antibody 10 nM
Please enter fulfilled where OD450 is greater than or equal to 2 OD450, and not fulfilled where it is lower.

{"binder": "F7.44.20-H6 (scFv, not shown: small tags and cut ends, also called S009-F7.44.20 humanized antibody VH1a + VL2) scFv: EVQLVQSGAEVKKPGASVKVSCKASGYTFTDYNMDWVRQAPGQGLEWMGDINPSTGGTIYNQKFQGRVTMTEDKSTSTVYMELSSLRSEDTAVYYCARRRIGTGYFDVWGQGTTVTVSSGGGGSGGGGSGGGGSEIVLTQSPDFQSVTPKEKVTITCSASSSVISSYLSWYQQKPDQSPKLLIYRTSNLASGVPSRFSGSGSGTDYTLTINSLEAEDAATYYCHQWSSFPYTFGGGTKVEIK", "label.class": "fulfilled"}
{"binder": "F7.44.20-H1 (scFv, not shown: small tags and cut ends, also called S009-F7.44.20 humanized antibody VH1 + VL1) scFv: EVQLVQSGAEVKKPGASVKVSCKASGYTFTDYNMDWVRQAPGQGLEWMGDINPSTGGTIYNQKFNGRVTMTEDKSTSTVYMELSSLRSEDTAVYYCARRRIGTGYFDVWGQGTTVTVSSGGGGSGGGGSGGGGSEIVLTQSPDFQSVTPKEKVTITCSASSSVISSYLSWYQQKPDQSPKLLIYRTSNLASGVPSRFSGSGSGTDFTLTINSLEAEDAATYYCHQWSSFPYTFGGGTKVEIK", "label.class": "fulfilled"}
{"binder": "Tab110 (scFv, not shown: small tags and cut ends, also called YP218 VH-(G4S)3-VL-his antibody; positive control) scFv: QQQLEESGGGLVKPEGSLTLTCKASGFDLGFYFYACWVRQAPGKGLEWIACIYTAGSGSTYYASWAKGRFTISKASSTTVTLQMTSLAAADTATYFCARSTANTRSTYYLNLWGPGTLVTVSSGGGGSGGGGSGGGGSDVVMTQTPASVSEPVGGTVTIKCQASQRISSYLSWYQQKPGQRPKLLIFGASTLASGVPSRFKGSGSGTEYTLTISDLECADAATYYCQSYAYFDSNNWHAFGGGTEVVV", "label.class": "not fulfilled"}
{"binder": "F7.44.20-H8 (scFv, not shown: small tags and cut ends, also called S009-F7.44.20 humanized antibody VH1a + VL4) scFv: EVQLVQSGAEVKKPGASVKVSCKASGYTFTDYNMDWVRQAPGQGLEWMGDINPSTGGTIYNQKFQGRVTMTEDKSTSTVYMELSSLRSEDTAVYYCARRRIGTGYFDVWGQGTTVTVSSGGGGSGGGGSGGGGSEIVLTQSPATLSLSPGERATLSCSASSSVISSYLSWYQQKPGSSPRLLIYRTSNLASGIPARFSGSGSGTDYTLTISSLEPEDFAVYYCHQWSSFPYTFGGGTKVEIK", "label.class": "fulfilled"}
{"binder": "F7.44.20-H2 (scFv, not shown: small tags and cut ends, also called S009-F7.44.20 humanized antibody VH1 + VL2) scFv: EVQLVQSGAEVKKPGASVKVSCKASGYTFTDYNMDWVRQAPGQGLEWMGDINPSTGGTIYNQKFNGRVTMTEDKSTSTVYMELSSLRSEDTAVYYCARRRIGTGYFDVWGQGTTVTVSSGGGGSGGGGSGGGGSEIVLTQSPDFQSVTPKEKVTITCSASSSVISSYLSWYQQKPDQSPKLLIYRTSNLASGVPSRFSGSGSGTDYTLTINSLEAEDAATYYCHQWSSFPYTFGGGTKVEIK", "label.class": "fulfilled"}
{"binder": "F7.44.20-H11 (scFv, not shown: small tags and cut ends, also called S009-F7.44.20 humanized antibody VH2 + VL3) scFv: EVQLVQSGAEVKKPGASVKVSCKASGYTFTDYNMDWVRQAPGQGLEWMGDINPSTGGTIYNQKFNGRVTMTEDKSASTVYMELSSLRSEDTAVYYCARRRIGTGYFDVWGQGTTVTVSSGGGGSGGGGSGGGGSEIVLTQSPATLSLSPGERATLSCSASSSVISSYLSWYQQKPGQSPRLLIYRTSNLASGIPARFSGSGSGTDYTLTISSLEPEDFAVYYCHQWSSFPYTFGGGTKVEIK", "label.class": "fulfilled"}
{"binder": "F7.44.20-H14 (scFv, not shown: small tags and cut ends, also called S009-F7.44.20 humanized antibody VH2a + VL2) scFv: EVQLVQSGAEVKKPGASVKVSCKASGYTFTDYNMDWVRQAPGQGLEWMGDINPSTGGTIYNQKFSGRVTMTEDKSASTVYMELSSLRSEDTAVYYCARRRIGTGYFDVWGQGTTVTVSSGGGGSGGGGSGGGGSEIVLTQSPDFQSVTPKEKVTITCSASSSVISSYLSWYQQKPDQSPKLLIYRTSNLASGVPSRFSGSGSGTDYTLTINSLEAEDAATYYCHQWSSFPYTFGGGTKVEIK", "label.class": "not fulfilled"}
{"binder": "F7.44.20 (scFv, not shown: small tags and cut ends, also called S009-F7.44.20 (parental variable regions, in the humanized-antibody ELISA)) scFv: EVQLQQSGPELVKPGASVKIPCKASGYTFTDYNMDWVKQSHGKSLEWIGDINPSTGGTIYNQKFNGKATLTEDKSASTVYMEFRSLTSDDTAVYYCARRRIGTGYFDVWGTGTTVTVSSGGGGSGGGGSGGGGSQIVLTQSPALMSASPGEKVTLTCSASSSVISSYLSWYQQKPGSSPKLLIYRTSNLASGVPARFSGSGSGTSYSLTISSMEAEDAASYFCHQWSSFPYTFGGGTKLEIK", "label.class": "not fulfilled"}
